# collection of pIC50 values tested on Human M3 receptor (Homo sapiens, UniProt P20309)
# Sequence (P20309 whole entry): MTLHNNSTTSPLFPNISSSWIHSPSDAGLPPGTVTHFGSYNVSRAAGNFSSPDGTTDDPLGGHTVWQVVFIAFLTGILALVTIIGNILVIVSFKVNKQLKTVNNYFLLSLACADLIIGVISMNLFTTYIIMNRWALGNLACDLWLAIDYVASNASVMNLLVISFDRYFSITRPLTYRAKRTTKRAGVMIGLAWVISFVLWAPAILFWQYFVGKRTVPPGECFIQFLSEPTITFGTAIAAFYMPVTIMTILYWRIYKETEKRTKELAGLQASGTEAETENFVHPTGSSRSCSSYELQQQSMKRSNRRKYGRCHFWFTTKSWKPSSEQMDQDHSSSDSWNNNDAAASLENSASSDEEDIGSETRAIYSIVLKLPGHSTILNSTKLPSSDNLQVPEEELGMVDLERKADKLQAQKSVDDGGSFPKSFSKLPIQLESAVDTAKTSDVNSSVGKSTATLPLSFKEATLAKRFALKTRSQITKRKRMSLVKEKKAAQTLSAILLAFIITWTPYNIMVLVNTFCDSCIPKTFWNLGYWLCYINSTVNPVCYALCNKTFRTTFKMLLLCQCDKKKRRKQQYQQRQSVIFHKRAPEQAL
pIC50: −log10 of the molar value.

Study these solved cases before continuing.
Report pIC50 for O=C1c2ccc(CNC[C@H](O)c3ccc(O)c4[nH]c(=O)ccc34)cc2C(=O)N1Cc1ccc(-c2cccc([C@](O)(C(=O)OCC3CCN(Cc4ccccc4)CC3)c3ccccc3)c2)s1 [Compound 12] tested on Human M3 receptor (Homo sapiens, UniProt P20309).
8.52 to 9.52

Try this molecule too: Cc1cc(C(=O)NCc2ccc(-c3cccc([C@](O)(C(=O)OCC4CCN(Cc5ccccc5)CC4)c4ccccc4)c3)s2)c(F)cc1CNC[C@H](O)c1ccc(O)c2[nH]c(=O)ccc12 [Compound 1O]
< 8.52

Try this molecule too: O=C(c1ccc(CCNC[C@H](O)c2ccc(O)c3[nH]c(=O)ccc23)cc1)N1CC=C(c2cccc([C@](O)(C(=O)OCC3CCN(Cc4ccccc4)CC3)c3ccccc3)c2)CC1 [Compound 3]
> 9.52

Could you now look at the following molecule, please?
Report pIC50 for COc1cc(C(=O)NCc2ccc(-c3cccc([C@](O)(C(=O)OCC4(C)CCN(Cc5ccccc5)CC4)c4ccccc4)c3)s2)c(Cl)cc1CNC[C@H](O)c1ccc(O)c2[nH]c(=O)ccc12 [Compound 11] tested on Human M3 receptor (Homo sapiens, UniProt P20309).
8.52 to 9.52
